Molecular target: Protein deacetylase HDAC6 (Homo sapiens)
Sequence (Q9UBN7 whole entry): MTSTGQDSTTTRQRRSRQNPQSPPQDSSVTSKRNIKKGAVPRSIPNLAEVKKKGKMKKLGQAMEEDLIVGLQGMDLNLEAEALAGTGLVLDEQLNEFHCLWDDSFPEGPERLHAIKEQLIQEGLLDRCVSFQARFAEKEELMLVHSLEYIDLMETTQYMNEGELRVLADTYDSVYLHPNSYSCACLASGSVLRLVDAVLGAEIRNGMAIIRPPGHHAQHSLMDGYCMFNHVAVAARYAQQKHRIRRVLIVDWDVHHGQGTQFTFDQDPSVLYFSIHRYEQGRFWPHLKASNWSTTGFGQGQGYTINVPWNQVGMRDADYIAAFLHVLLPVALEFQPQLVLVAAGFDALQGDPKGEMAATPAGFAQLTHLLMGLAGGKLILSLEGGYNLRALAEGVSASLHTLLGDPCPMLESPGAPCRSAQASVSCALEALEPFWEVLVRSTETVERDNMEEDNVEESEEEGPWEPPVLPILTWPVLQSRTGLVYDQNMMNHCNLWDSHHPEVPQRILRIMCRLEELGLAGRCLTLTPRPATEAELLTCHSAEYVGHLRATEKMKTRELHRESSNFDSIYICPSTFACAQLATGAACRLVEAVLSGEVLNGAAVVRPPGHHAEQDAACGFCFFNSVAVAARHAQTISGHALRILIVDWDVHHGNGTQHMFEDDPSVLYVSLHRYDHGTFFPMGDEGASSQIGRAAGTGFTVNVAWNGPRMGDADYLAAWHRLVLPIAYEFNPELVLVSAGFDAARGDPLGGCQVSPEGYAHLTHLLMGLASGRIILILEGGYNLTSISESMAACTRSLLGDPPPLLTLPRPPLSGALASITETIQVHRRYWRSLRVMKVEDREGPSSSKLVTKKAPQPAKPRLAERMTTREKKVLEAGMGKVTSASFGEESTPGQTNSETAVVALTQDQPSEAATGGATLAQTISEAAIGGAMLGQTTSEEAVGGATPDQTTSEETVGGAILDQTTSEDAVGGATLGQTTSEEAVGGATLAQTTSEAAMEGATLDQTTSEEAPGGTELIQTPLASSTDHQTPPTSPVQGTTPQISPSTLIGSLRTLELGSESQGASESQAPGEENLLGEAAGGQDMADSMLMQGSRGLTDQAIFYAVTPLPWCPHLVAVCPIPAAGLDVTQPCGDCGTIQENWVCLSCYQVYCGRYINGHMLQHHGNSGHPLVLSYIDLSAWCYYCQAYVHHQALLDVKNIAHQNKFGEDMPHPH
Experiment: Inhibition of recombinant human HDAC6 using fluorogenic HDAC substrate preincubated for 15 mins followed by substrate addition and measured after 30 mins by fluorescence analysis
pIC50: −log10 of the molar value.
Observed property: pIC50

{"Compound": "CC(c1ccc(C(=O)NO)cc1)n1[se]c2ccccc2c1=O (racemic)", "Measured on": "Protein deacetylase HDAC6 (Homo sapiens)", "Readout number": 6.06}
{"Compound": "O=C(/C=C/c1ccc(-n2[se]c3ccccc3c2=O)cc1)NO", "Measured on": "Protein deacetylase HDAC6 (Homo sapiens)", "Readout number": 6.17}
{"Compound": "O=c1c2ccccc2[se]n1-c1ccccc1", "Measured on": "Protein deacetylase HDAC6 (Homo sapiens)", "Readout number": 4.94}
{"Compound": "O=C(NO)c1cnc(N2CCC(n3[se]c4ccccc4c3=O)CC2)nc1", "Measured on": "Protein deacetylase HDAC6 (Homo sapiens)", "Readout number": 6.01}
{"Compound": "O=C(CCCCCCn1[se]c2ccccc2c1=O)NO", "Measured on": "Protein deacetylase HDAC6 (Homo sapiens)", "Readout number": 7.72}
{"Compound": "O=C(NO)c1ccc(Cn2[se]c3ccc(O)cc3c2=O)cc1", "Measured on": "Protein deacetylase HDAC6 (Homo sapiens)", "Readout number": 6.73}
{"Compound": "O=C(NO)c1ccc(Cn2[se]c3ccc(F)cc3c2=O)cc1", "Measured on": "Protein deacetylase HDAC6 (Homo sapiens)", "Readout number": 6.75}
{"Compound": "O=C(CCCCCOc1ccc(-n2[se]c3ccccc3c2=O)cc1)NO", "Measured on": "Protein deacetylase HDAC6 (Homo sapiens)", "Readout number": 6.29}
{"Compound": "O=C(CCCOc1ccc(-n2[se]c3ccccc3c2=O)cc1)NO", "Measured on": "Protein deacetylase HDAC6 (Homo sapiens)", "Readout number": 6.04}
{"Compound": "O=C(NO)c1ccc(-n2[se]c3ccccc3c2=O)cc1", "Measured on": "Protein deacetylase HDAC6 (Homo sapiens)", "Readout number": 5.71}
{"Compound": "O=C(NO)c1ccc(Cn2[se]c3ccc(C(F)(F)F)cc3c2=O)cc1", "Measured on": "Protein deacetylase HDAC6 (Homo sapiens)", "Readout number": 6.23}
{"Compound": "O=C(CCCCn1[se]c2ccccc2c1=O)NO", "Measured on": "Protein deacetylase HDAC6 (Homo sapiens)", "Readout number": 6.45}
{"Compound": "O=C(NO)c1ccc(Cn2[se]c3ccccc3c2=O)cc1", "Measured on": "Protein deacetylase HDAC6 (Homo sapiens)", "Readout number": 7.43}
{"Compound": "O=C(NO)c1cnc(N2CCC(Cn3[se]c4ccccc4c3=O)CC2)nc1", "Measured on": "Protein deacetylase HDAC6 (Homo sapiens)", "Readout number": 6.35}
{"Compound": "O=C(CCc1ccc(-n2[se]c3ccccc3c2=O)cc1)NO", "Measured on": "Protein deacetylase HDAC6 (Homo sapiens)", "Readout number": 5.94}
{"Compound": "O=C(CCCCCCOc1ccc(-n2[se]c3ccccc3c2=O)cc1)NO", "Measured on": "Protein deacetylase HDAC6 (Homo sapiens)", "Readout number": 6.74}
{"Compound": "O=C(CCCCCn1[se]c2ccccc2c1=O)NO", "Measured on": "Protein deacetylase HDAC6 (Homo sapiens)", "Readout number": 6.74}
